Just for reference, ChEMBL document CHEMBL1143258 is where these values come from.

Assay: Half life in Lewis rat at 1 mg/kg, iv
Type: ADME, organism-based
Set-up: dose 1 mg/kg, route intravenous
Conditions: in vivo
attribute_measured: half-life

INPUT: What value of half-life has been reported for the following compound? Cc1nnc(-c2ccc(C)c(-c3ccc(C(=O)NCC4CC4)cc3)c2)o1
OUTPUT: 9 h

====

Assay: Plasma clearance in Lewis rat at 1 mg/kg, iv
Format: ADME, organism-based
Set-up: dose 1 mg/kg, route intravenous
attribute_measured: clearance

INPUT: What value of clearance has been reported for the following molecule? Cc1nnc(-c2ccc(C)c(-c3ccc(C(=O)NCC4CC4)cc3)c2)o1
OUTPUT: < 10 mL/min/kg
